# experiment_notes: Filtration properties during crystallization, observed with the naked eye
# Format: physicochemical
# assay_context: observation with the naked eye
outcome_measure: Filtration property during crystallization

- compound: "CC(C)CC1C(=O)OC(Cc2ccc(N3CCOCC3)cc2)C(=O)N(C)C(CC(C)C)C(=O)OC(C)C(=O)CCCCN1C (stereo not shown) [Prior art Crystal (V), reference compound]"
  reported_measurement: "×"
- compound: "CC(C)CC1C(=O)OC(Cc2ccc(N3CCOCC3)cc2)C(=O)N(C)C(CC(C)C)C(=O)OC(C)C(=O)CCCCN1C (stereo not shown) [Crystal (I)]"
  reported_measurement: "×"
- compound: "CC(C)CC1C(=O)OC(Cc2ccc(N3CCOCC3)cc2)C(=O)N(C)C(CC(C)C)C(=O)OC(C)C(=O)CCCCN1C (stereo not shown) [Crystal (II)]"
  reported_measurement: "⊚"
- compound: "CC(C)CC1C(=O)OC(Cc2ccc(N3CCOCC3)cc2)C(=O)N(C)C(CC(C)C)C(=O)OC(C)C(=O)CCCCN1C (stereo not shown) [Crystal (III)]"
  reported_measurement: "◯"

These measurements were taken from patent US6346603B1.
